// reported relative viability for each item listed
system: NCI-H1993; assay: relative viability (nuclei count vs DMSO), 5 days (fraction); higher = more cells survive; conditions: first compound 0.1 µM
The response must contain the number and no unit.

Completed entries (count: 3):
Assign relative viability to the following record: NC(=O)Nc1cc(-c2cccc(F)c2)sc1C(=O)N[C@H]1CCCNC1 [AZD7762] + C[C@]1(O)C[C@@H](c2nc(-c3ccc4ccc(-c5ccccc5)nc4c3)c3c(N)nccn32)C1 [Linsitinib] (partner 1 µM)
0.666

Assign relative viability to the following record: NC(=O)Nc1cc(-c2cccc(F)c2)sc1C(=O)N[C@H]1CCCNC1 [AZD7762] + CC(=O)Nc1cccc(-n2c(=O)n(C3CC3)c(=O)c3c(Nc4ccc(I)cc4F)n(C)c(=O)c(C)c32)c1 [Trametinib] (partner 0.02 µM)
0.605

Assign relative viability to the following record: NC(=O)Nc1cc(-c2cccc(F)c2)sc1C(=O)N[C@H]1CCCNC1 [AZD7762] + Nc1ncn([C@H]2C[C@H](O)[C@@H](CO)O2)c(=O)n1 [Decitabine] (partner 2 µM)
0.657

Next:
Assign relative viability to the following record: NC(=O)Nc1cc(-c2cccc(F)c2)sc1C(=O)N[C@H]1CCCNC1 [AZD7762] + CS(=O)(=O)N1CCN(Cc2cc3nc(-c4cccc5[nH]ncc45)nc(N4CCOCC4)c3s2)CC1 [Pictilisib] (partner 1 µM)
0.717

Assign relative viability to the following record: NC(=O)Nc1cc(-c2cccc(F)c2)sc1C(=O)N[C@H]1CCCNC1 [AZD7762] + CC1(C)CCC(c2ccc(Cl)cc2)=C(CN2CCN(c3ccc(C(=O)NS(=O)(=O)c4ccc(N[C@H](CCN5CCOCC5)CSc5ccccc5)c(S(=O)(=O)C(F)(F)F)c4)cc3)CC2)C1 [Navitoclax] (partner 0.5 µM)
0.846

Assign relative viability to the following record: NC(=O)Nc1cc(-c2cccc(F)c2)sc1C(=O)N[C@H]1CCCNC1 [AZD7762] + C[C@@H](Oc1cc(-c2cnn(C3CCNCC3)c2)cnc1N)c1c(Cl)ccc(F)c1Cl [Crizotinib] (partner 1 µM)
0.729
